systemTested: human CB1 receptor (Homo sapiens)
Sequence (P21554 whole entry): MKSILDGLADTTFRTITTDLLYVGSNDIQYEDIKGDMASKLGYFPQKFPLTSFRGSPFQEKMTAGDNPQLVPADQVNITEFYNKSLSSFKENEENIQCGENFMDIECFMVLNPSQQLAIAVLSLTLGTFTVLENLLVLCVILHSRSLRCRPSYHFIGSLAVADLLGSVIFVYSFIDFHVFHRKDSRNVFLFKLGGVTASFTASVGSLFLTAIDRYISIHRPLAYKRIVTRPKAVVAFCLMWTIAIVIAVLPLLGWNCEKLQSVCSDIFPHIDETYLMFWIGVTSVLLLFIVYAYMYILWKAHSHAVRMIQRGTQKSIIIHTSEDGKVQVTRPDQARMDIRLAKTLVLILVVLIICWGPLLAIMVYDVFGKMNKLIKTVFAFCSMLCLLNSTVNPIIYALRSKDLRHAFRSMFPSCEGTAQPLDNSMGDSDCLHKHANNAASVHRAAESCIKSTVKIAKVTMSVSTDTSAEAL
assayProtocol: Functional cell-based assay, CB1 receptor mediated change in CRE β-gal expression
Parameters: expressed in transfected cells; host or cells: SK-N-MC cells
reportedConditions: SK-N-MC cells with CRE β-gal and human CB1; forskolin treated; β-galactosidase activity; read-out: EC50 value for functional activity as a CB1 receptor functional inverse agonist
endpoint: EC50 (nM)

querysmiles=O=C(NN1CCC(O)CC1)c1nn(-c2ccc(Cl)cc2Cl)c2c1CCC/C2=C\c1ccc(F)cc1 reportedvalue=40
querysmiles=COC1CCN(NC(=O)c2nn(-c3ccc(Cl)cc3Cl)c3c2CCC/C3=C\c2ccc(F)cc2)CC1 reportedvalue=4
querysmiles=C[N+]1(NC(=O)c2nn(-c3ccc(Cl)cc3Cl)c3c2CCC/C3=C\c2ccc(F)cc2)CCCCC1 reportedvalue=7.2
querysmiles=O=C(NN1C=CCCC1)c1nn(-c2ccc(Cl)cc2Cl)c2c1CCC/C2=C\c1ccc(F)cc1 reportedvalue=1.4
